Provenance of the data: the supplement of paper PMC7595190

Tested on: MV4-11
Test: CellTox Green cytotoxicity fluorescence relative to DMSO vehicle (fold of vehicle RFU); higher = more cell death (loss of membrane integrity), active = 2 or more
Details: 1 µM; 24 h
If the reported CellTox Green cytotoxicity fluorescence equals or exceeds 1, assign Yes. If not, assign No.

Consider the worked cases shown below.
[[record]]
compound = "CC1(C)CCC(c2ccc(Cl)cc2)=C(CN2CCN(c3ccc(C(=O)NS(=O)(=O)c4ccc(N[C@H](CCN5CCOCC5)CSc5ccccc5)c(S(=O)(=O)C(F)(F)F)c4)cc3)CC2)C1 [Navitoclax]"
cat = "Yes"

[[record]]
compound = "Cc1nn(C)c(COc2ccc(N3CCN(S(=O)(=O)N(C)C)CC3)cc2)c1-c1cccc2c(CCCOc3cccc4ccccc34)c(C(=O)O)n(CCN3CCOCC3)c12"
cat = "Yes"

[[record]]
compound = "COc1ccc(CCNCc2ccc(OCc3ccc(Cl)nc3)c(OC)c2)cc1OC"
cat = "No"


Turning to the following compound.
Lookup: Textbook exercise: given the entry "C[C@H]1Oc2cc(cnc2N)-c2c(nn(C)c2C#N)CN(C)C(=O)c2ccc(F)cc21" , state whether its CellTox Green cytotoxicity fluorescence is greater than or equal to 1.
Found: No
